protocol.details: yeast display, Sf9 membrane polyspecificity reagent, FACS + sequencing; frameworks hold sequencing errors
measured.attribute: polyreactivity (PSR sort gate)

Sample records with polyreactivity (PSR sort gate):
QVQLVESGGGLVQAGGGLRLSFPASGRTFTVNAMGWSRQSPGKERELVATITYGGGSRYYADSVKGRFTISRDNAKNSVYLQMNSLKPEDTAVYYCAARSDNYHVYYFKRWGKYYSWGQGTQVTVSS	low polyreactivity
QVQLVESGGGLVQAGGSLRLSCAASGNTFQYYAMGWYRQAPGKEREFVAAISRRGGSTYYADSVKGRFTISRDNAKNTVYLQMNSLKPEDTAVYYCNKVIVLSQSSYSFHYAYDYWGQGTQVTVSS	high polyreactivity
QVQLVESGGGLVQAGGSLRISCAASGIIFPQYTMGWYRPAPGKERELVAVITSGGSTYYADSVKGRFTISRDNAKNTVYLQMNSLNPEDTAVYYCAAETETYWWTFITREYDYWGQGTQVTVSS	high polyreactivity
QVQLVESGGGLVQAGGSLRLSCAASGSIFQTYAMGWYRQAPGKERELVAAITSGGGSTYYADSVKGRFTISRDNAKNTVYLQMNSLKPEDTAVYYCNRLYRYLVWPAGEYDYWGQGTQVTVTS	high polyreactivity
QVQLVESGGLLVQAGGSLSLSCAASGRTFTPNAMGWYRQAPGKEREFVAAITYYGGSTRYADSVKGRFTISRDNAKNTVYLQMNSLIPEDTAVYYCAADVHYRYFYSWSSYSGYGYWGQGTQVTVSS	low polyreactivity
QVQLVESGGGLVQAGGSLRLSCAASGSIFNWYAMGWSRQAPGKERELVAAISEDGGSTYYADSVKGRFTISRDNAKNTVYLQMNTLKPEDTAVYYCATPVASVTGYDYWGQGTQVTVSS	low polyreactivity
QVQLVESGGGLVQAGGSLRLSCAASGSIFVNNAMGWYRQAPGKERELVAAIRRSGGNTYYADSVKGRFTISRDNAKNTVYLQLNSLKPEDTAVYYCNVVRRSDSIRAKSRDYWGQGTQVTVSS	high polyreactivity
QVQLVESGGGLVQAGGSLRLSCAASGSIFYNYAMGWYRQAPGKERELVATITRSDGSTYYADSVKGRFTISRENAKNTVYLQMNSLKPEDTAVYYCAADSGSTSEYEYWGQGTQGTVSS	low polyreactivity

Enquiry: Look up polyreactivity (PSR sort gate): QVQLVESGGGLVQAGGSLRLICAASGRIFRYNARGWYRQAPGKERELVAAISSGGSTNYADSVKGRFTTSRDNAKNTVYLQMNSLKPEDTAVYYCNAESVHRYPGWGYDYWGQGTQVTVSS
Return: low polyreactivity

Enquiry: // query polyreactivity (PSR sort gate) value for entry QVQLVESGGGLVQAGGSLRLSCAASGSTFIGFAMGWYRQAPGKERELVAAITSDGRTNYADSVKGRFTISRDNAKNTVYLQMNSLKPEDTAVYYCAAQILGTFYEYDYWGQGTQVTVSS
Return: low polyreactivity

Enquiry: Given the sequence QVQLVESGGGLVEAGGSLRLSCAASGSILIYVMGWYRQAPGKERDLFASITFSGGSTYYADSVKGRFTISRDNAKNSVYLQMYRLKPEVTAVYYCAAVPLWDYKFFYYLLYDYWGQGTQVTVSS , what is its reported polyreactivity (PSR sort gate)?
Return: low polyreactivity

Enquiry: Which polyreactivity (PSR sort gate) value belongs to QVQLVESGGGLVQAGGSLRLSCAASGSIFFEYAMGWYRQAPGKERELVAAISRRGGSTYYADSVKGRFTISRDNAKNTVYLQMNSLKPEDTAVYYCNKVNRASRGDYDYWGQGTQVTVSS ?
Return: high polyreactivity

Enquiry: Form field: reported polyreactivity (PSR sort gate) of QVQLVESGGGLVQAGGSLRISCAASGSTFWYHAKGWSRQAPGKERELVATITNSGGSTYYADSVKGRFTISRDNAKNTVYLQKNSLKPEDTAVYYGATDVYSGALLKYDFWGQGTQVTVSS
Return: low polyreactivity

Enquiry: Fill blank: measured polyreactivity (PSR sort gate) of the sequence QVQLVESGGGLVQAGGSLRLSCAASGIIFRPYAMGWYRQAPGKERELVAAITGSGVSTYYADSVKGRFTISRDNAKNTVYLQMNSLKPEDTAVYYCAKRYNRGYHRYDYWGQGTHVTVSS is ____.
Return: low polyreactivity

Enquiry: # polyreactivity (PSR sort gate) lookup, item QVQLVESGGGLVQAGGSLPLSSAASGITLRYYAMRWYRQAPGKERELVAAMSGRGGGTYYADSVKGRFTISRDNAKNTVYLQMNSLKPEDTAVYYCNAVGQQQVEYEYWGQGTQVTVSS
Return: high polyreactivity

Enquiry: What value of measured polyreactivity (PSR sort gate) is listed for QVQLVESGGGLVQAGGSLRLSCAASGSTFLYYTMGWYRPAPGKERELVAAITSGGDTNYPDSVKGRFTISRDNAKNTVYLQMNSLKPEDTAVYYCNAEYTLSGTKIYTYKYDYRGQGTQVTVSS ?
Return: low polyreactivity

Enquiry: Given QVQRVESGGGLVLAGGSLRLSSAASGITFVRYAMGGYRQAPVKERELVAVISRGGITNYADSVMGRFTISRDNAKNTVYLQMNSLKPEDTAVYYCAVRARSYVRTYDYWGQGTQVTVSS , state its recorded polyreactivity (PSR sort gate).
Return: high polyreactivity

Enquiry: Dear colleague, I am looking for the recorded polyreactivity (PSR sort gate) of the following sequence: QDQLVESGGGLVQAGGSLRLSCAASGRILPYYTMGWYRQAPGKERELVAAISKRGTSTYYADSVKGRFTISRDNAKNTVYLQMNSLKPEDTAVYYCAKRGPGVDYDYWGQGTQVTVSS
Return: high polyreactivity
